// data source = patent US10351522B2

Recorded Response (%) OX1R for the following compounds
# ASSAYED TARGET: human OX1R (Homo sapiens)
# Construct: expressed in transfected cells; host or cells: CHO (Chinese hamster ovary) cells, line CHOOX1R, co-expressing NFAT-luciferase
# Sequence (O43613 1-425): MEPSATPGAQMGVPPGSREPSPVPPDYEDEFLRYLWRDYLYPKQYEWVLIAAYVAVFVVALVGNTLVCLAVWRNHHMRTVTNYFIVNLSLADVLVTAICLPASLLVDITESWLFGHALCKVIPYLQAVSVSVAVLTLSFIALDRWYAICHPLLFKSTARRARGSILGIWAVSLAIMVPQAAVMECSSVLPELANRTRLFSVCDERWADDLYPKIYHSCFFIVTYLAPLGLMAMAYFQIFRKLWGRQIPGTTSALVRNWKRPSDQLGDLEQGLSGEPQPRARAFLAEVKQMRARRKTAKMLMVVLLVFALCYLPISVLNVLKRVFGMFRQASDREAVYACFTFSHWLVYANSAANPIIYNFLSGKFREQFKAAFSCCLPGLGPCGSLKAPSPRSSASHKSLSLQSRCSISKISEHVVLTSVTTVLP
# MEASUREMENT PROTOCOL: Agonist activity against OX1R: intracellular calcium (Fura-2AM, FDSS7000) in CHOOX1R cells
# Type: cell-based
# RUN CONDITIONS: 0.1 μM test compound; relative to orexin-A as full agonist (100%)

| COMPOUND | Response (%) OX1R |
| --- | --- |
| COc1ccc(-c2cccc(C(=O)N(C)C)c2)cc1S(=O)(=O)Nc1cccc(NC(=O)NCc2ccccc2)c1 [Example 66] | 6% |
| COc1ccc(-c2cccc(C(=O)N(C)C)c2)cc1S(=O)(=O)Nc1cccc(NC(=O)Nc2cccnc2)c1 [Example 69] | 6% |
| COc1ccc(-c2cccc(C(=O)N(C)C)c2)cc1S(=O)(=O)Nc1cccc(NC(=O)c2ccc(N(C)C)cc2)c1 [Example 8] | 9% |
| COc1ccc(-c2cccc(C(=O)N(C)C)c2)cc1S(=O)(=O)Nc1cccc(Nc2ccc3c(c2)OCO3)c1 [Example 36] | <5% |
| COc1ccc(-c2cccc(C(=O)N(C)C)c2)cc1S(=O)(=O)Nc1cccc(NC(=O)Nc2cccc(N)c2)c1 [Example 63] | 9% |
| COc1ccc(-c2cccc(C(=O)N(C)C)c2)cc1S(=O)(=O)Nc1cccc(NC(=O)Nc2cccc(C(=O)N(C)C)c2)c1 [Example 49] | <5% |
| COc1ccc(-c2cccc(C(=O)N(C)C)c2)cc1S(=O)(=O)Nc1cccc(NC(=O)Nc2ccccc2C)c1 [Example 51] | <5% |
| COc1ccc(-c2cccc(C(=O)N(C)C)c2)cc1S(=O)(=O)Nc1cccc(NC(=O)/C=C/c2ccoc2)c1 [Example 14] | <5% |
| COc1ccc(-c2cccc(C(=O)N(C)C)c2)cc1S(=O)(=O)Nc1cccc(NC(=O)c2ccc3c(c2)OCO3)c1 [Example 5] | 8% |
| COc1ccc(-c2cccc(C(=O)N(C)C)c2)cc1S(=O)(=O)Nc1cccc(NCc2cccc(C)c2)c1 [Example 25] | <5% |
| COc1ccc(-c2cccc(C(=O)N(C)C)c2)cc1S(=O)(=O)Nc1cccc(NC(=O)OCc2ccccc2)c1 [Example 73] | 6% |
| COc1ccccc1NC(=O)Nc1cccc(NS(=O)(=O)c2cc(-c3cccc(C(=O)N(C)C)c3)ccc2OC)c1 [Example 52] | <5% |
| COc1ccc(-c2cccc(C(=O)N(C)C)c2)cc1S(=O)(=O)Nc1cccc(NC(=O)c2cccc3ccccc23)c1 [Example 10] | 5% |
| COc1ccc(-c2cccc(C(=O)N(C)C)c2)cc1S(=O)(=O)Nc1cccc(NC(=O)OC(C)(C)C)c1 [Example 74] | 6% |
| COc1ccc(-c2cccc(C(=O)N(C)C)c2)cc1S(=O)(=O)Nc1cccc(NC(=O)Nc2ccc(C)cc2)c1 [Example 56] | <5% |
| COc1ccc(-c2cccc(C(=O)N(C)C)c2)cc1S(=O)(=O)Nc1cccc(NC(=O)Nc2cccc(NC(=NC(=O)OC(C)(C)C)NC(=O)OC(C)(C)C)c2)c1 [Example 64] | <5% |
| COc1ccc(-c2cccc(C(=O)N(C)C)c2)cc1S(=O)(=O)Nc1cccc(NC(=O)Nc2ccc([N+](=O)[O-])cc2)c1 [Example 61] | <5% |
| COc1ccc(-c2cccc(C(=O)N(C)C)c2)cc1S(=O)(=O)Nc1cccc(NC(=O)Nc2cc([N+](=O)[O-])cc([N+](=O)[O-])c2)c1 [Example 47] | <5% |
